B1: POU domain, class 3, transcription factor 4, residues 280 to 335; numbered along this chain, P49335 (parent)
chain: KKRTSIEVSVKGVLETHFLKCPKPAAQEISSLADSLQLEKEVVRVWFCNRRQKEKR

Variants of: B1
Test: abundance fitness (aPCA) (normalised: wild type 0, dead -1); higher = more abundant; growth selection in yeast, the domain comes from the species named
Settings: Homo sapiens
Category key, based on recorded abundance fitness: group 1 (below -0.5), group 2 (-0.5 to below -0.2), group 3 (-0.2 or more)

| VARIANT_KEY | LABEL_VALUE |
| --- | --- |
| E39T | group 2 |
| S30P | group 1 |
| S5F | group 3 |
| V42L | group 3 |
| S5L | group 3 |
| D34L | group 1 |
| E41L | group 1 |
| A25F | group 1 |
| C48N | group 3 |
| R50K | group 2 |
| K20P | group 1 |
| K53W | group 1 |
| V10M | group 3 |
| V13F | group 2 |
| L14H | group 1 |
| E39I | group 2 |
| T4C | group 2 |
| K2H | group 2 |
| V42E | group 3 |
| K2R | group 2 |
| K2Y | group 3 |
| A33R | group 1 |
| L38Y | group 2 |
| L36G | group 1 |
| S5V | group 3 |
| C21P | group 2 |
| V45K | group 3 |
| S30T | group 3 |
| V13S | group 3 |
| V10T | group 2 |
| F18W | group 2 |
| N49C | group 1 |
| E54Q | group 2 |
| K20S | group 2 |
| T16L | group 2 |
| F18L | group 1 |
| T16N | group 2 |
| L38P | group 1 |
| A25G | group 3 |
| V8W | group 3 |
| K23F | group 3 |
| A26G | group 2 |
| A33Y | group 1 |
| I6F | group 2 |
| K55Q | group 3 |
| Q37K | group 2 |
| A33T | group 1 |
| F18S | group 1 |
| R50L | group 1 |
| V10L | group 2 |
| K23Q | group 3 |
| E39P | group 3 |
| L14Y | group 1 |
| W46E | group 1 |
| R50N | group 1 |
| S31G | group 2 |
| E41S | group 2 |
| V8Y | group 3 |
| K55C | group 3 |
| H17N | group 2 |
| E28K | group 1 |
| K55I | group 1 |
| V8L | group 3 |
| H17E | group 3 |
| V10E | group 3 |
| F18A | group 1 |
| K11G | group 1 |
| K55N | group 3 |
| T16C | group 2 |
| E15K | group 1 |
| E15D | group 1 |
| S5K | group 3 |
| E7A | group 3 |
| S9M | group 2 |
| R3V | group 3 |
| R3T | group 3 |
| R51V | group 2 |
